Test system: MCF7 multi-cell spheroids with HUVEC/MSC, viability
Assay: Anticancer human tumor MCF7 cell line growth inhibition [IpAb];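 also: spheroids exposed to agents for seven days before readout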
Details: second compound 0.316 µM; first compound 1 µM; active compounds read low
Flag rule - viability, T/C less than 40% flags rule met; the remaining entries get rule not met.

>>> class_name("C=CCn1c(=O)c2cnc(Nc3ccc(N4CCN(C)CC4)cc3)nc2n1-c1cccc(C(C)(C)O)n1 + CC(C)NCC(C(=O)N1CCN(c2ncnc3c2C(C)CC3O)CC1)c1ccc(Cl)cc1")
"rule met"
>>> class_name("C=CC(=O)N1CCN(c2nc(=O)n(-c3c(C)ccnc3C(C)C)c3nc(-c4c(O)cccc4F)c(F)cc23)C(C)C1 (stereo unspecified) + CC(C)NCC(C(=O)N1CCN(c2ncnc3c2C(C)CC3O)CC1)c1ccc(Cl)cc1")
"rule not met"
>>> class_name("Cc1nc(NC(=O)N2CCCC2C(N)=O)sc1-c1ccnc(C(C)(C)C(F)(F)F)c1 (stereo unspecified) + CC(C)NCC(C(=O)N1CCN(c2ncnc3c2C(C)CC3O)CC1)c1ccc(Cl)cc1")
"rule not met"
>>> class_name("COc1c(OCCCN2CCOCC2)ccc2c3n(c(=NC(=O)c4cnc(N)nc4)nc12)CCN3 + CCN1CCN(Cc2ccc(Nc3ncc(F)c(-c4cc(F)c5nc(C)n(C(C)C)c5c4)n3)nc2)CC1")
"rule met"
>>> class_name("CC1(C)CCC(CN2CCN(c3ccc(C(=O)NS(=O)(=O)c4ccc(NCC5CCOCC5)c([N+](=O)[O-])c4)c(Oc4cnc5[nH]ccc5c4)c3)CC2)=C(c2ccc(Cl)cc2)C1 + CCN1CCN(Cc2ccc(Nc3ncc(F)c(-c4cc(F)c5nc(C)n(C(C)C)c5c4)n3)nc2)CC1")
"rule not met"

Kindly consider the entry below.
Query block: Take the molecule C=CCn1c(=O)c2cnc(Nc3ccc(N4CCN(C)CC4)cc3)nc2n1-c1cccc(C(C)(C)O)n1 + CCN1CCN(Cc2ccc(Nc3ncc(F)c(-c4cc(F)c5nc(C)n(C(C)C)c5c4)n3)nc2)CC1 and say whether its viability, T/C is less than 40%.
Result block: rule not met

----------
Tested on: MCF7 multi-cell spheroids with HUVEC/MSC, viability
Test: Anticancer human tumor MCF7 cell line growth inhibition [IpAb];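 also: spheroids exposed to agents for seven days before readout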
Details: second compound 0.316 µM; first compound 0.949 µM; active compounds read low
Metric name: viability, T/C (%)
Reply numerically in %, unit not repeated.

The cases that follow already have their viability, T/C on record.
>>> assay_value("CC(C)(C)c1cnc(CSc2cnc(NC(=O)C3CCNCC3)s2)o1 + CCN1CCN(Cc2ccc(Nc3ncc(F)c(-c4cc(F)c5nc(C)n(C(C)C)c5c4)n3)nc2)CC1")
27.1
>>> assay_value("Cn1cnc2c(F)c(Nc3ccc(Br)cc3Cl)c(C(=O)NOCCO)cc21 + CC(C)NCC(C(=O)N1CCN(c2ncnc3c2C(C)CC3O)CC1)c1ccc(Cl)cc1")
82.5
>>> assay_value("CC(C)(C)c1cnc(CSc2cnc(NC(=O)C3CCNCC3)s2)o1 + CC(C)NCC(C(=O)N1CCN(c2ncnc3c2C(C)CC3O)CC1)c1ccc(Cl)cc1")
29

Next item in the queue.
Query block: Quick check: viability, T/C of Cn1cnc2c(F)c(Nc3ccc(Br)cc3Cl)c(C(=O)NOCCO)cc21 + CCN1CCN(Cc2ccc(Nc3ncc(F)c(-c4cc(F)c5nc(C)n(C(C)C)c5c4)n3)nc2)CC1 ?
Result block: 120

----------
System: MCF7 multi-cell spheroids with HUVEC/MSC, viability
Assay: Anticancer human tumor MCF7 cell line growth inhibition [IpAb];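 also: spheroids exposed to agents for seven days before readout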
Details: second compound 0.316 µM; first compound 3.16 µM; active compounds read low
Metric name: viability, T/C (%)
Response body: numeric value in %, unit text excluded.

Examples with their reported viability, T/C follow.
>>> assay_value("C=CC(=O)N1CCN(c2nc(=O)n(-c3c(C)ccnc3C(C)C)c3nc(-c4c(O)cccc4F)c(F)cc23)C(C)C1 (centres undefined) + CC(C)NCC(C(=O)N1CCN(c2ncnc3c2C(C)CC3O)CC1)c1ccc(Cl)cc1")
68.4
>>> assay_value("CCCS(=O)(=O)Nc1ccc(F)c(C(=O)c2c[nH]c3ncc(-c4ccc(Cl)cc4)cc23)c1F + CCN1CCN(Cc2ccc(Nc3ncc(F)c(-c4cc(F)c5nc(C)n(C(C)C)c5c4)n3)nc2)CC1")
93.1
>>> assay_value("CC1(C)CCC(CN2CCN(c3ccc(C(=O)NS(=O)(=O)c4ccc(NCC5CCOCC5)c([N+](=O)[O-])c4)c(Oc4cnc5[nH]ccc5c4)c3)CC2)=C(c2ccc(Cl)cc2)C1 + CC(C)NCC(C(=O)N1CCN(c2ncnc3c2C(C)CC3O)CC1)c1ccc(Cl)cc1")
67.3
>>> assay_value("C=CCn1c(=O)c2cnc(Nc3ccc(N4CCN(C)CC4)cc3)nc2n1-c1cccc(C(C)(C)O)n1 + CC(C)NCC(C(=O)N1CCN(c2ncnc3c2C(C)CC3O)CC1)c1ccc(Cl)cc1")
23.2
>>> assay_value("C=CCn1c(=O)c2cnc(Nc3ccc(N4CCN(C)CC4)cc3)nc2n1-c1cccc(C(C)(C)O)n1 + CCN1CCN(Cc2ccc(Nc3ncc(F)c(-c4cc(F)c5nc(C)n(C(C)C)c5c4)n3)nc2)CC1")
37.9
>>> assay_value("Cn1ncc(Cl)c1-c1cc(C(=O)NC(CN)Cc2cccc(F)c2)sc1Cl (centres undefined) + CC(C)NCC(C(=O)N1CCN(c2ncnc3c2C(C)CC3O)CC1)c1ccc(Cl)cc1")
10.7
>>> assay_value("CC1(C)CCC(CN2CCN(c3ccc(C(=O)NS(=O)(=O)c4ccc(NCC5CCOCC5)c([N+](=O)[O-])c4)c(Oc4cnc5[nH]ccc5c4)c3)CC2)=C(c2ccc(Cl)cc2)C1 + CCN1CCN(Cc2ccc(Nc3ncc(F)c(-c4cc(F)c5nc(C)n(C(C)C)c5c4)n3)nc2)CC1")
98.6
>>> assay_value("Cc1nc(NC(=O)N2CCCC2C(N)=O)sc1-c1ccnc(C(C)(C)C(F)(F)F)c1 (centres undefined) + CC(C)NCC(C(=O)N1CCN(c2ncnc3c2C(C)CC3O)CC1)c1ccc(Cl)cc1")
37.8

With those in mind, consider the next molecule.
Query block: Which viability, T/C reading was recorded for the molecule CCCS(=O)(=O)Nc1ccc(F)c(C(=O)c2c[nH]c3ncc(-c4ccc(Cl)cc4)cc23)c1F + CC(C)NCC(C(=O)N1CCN(c2ncnc3c2C(C)CC3O)CC1)c1ccc(Cl)cc1 ?
Result block: 80.2

----------
Below is a list of entries, each paired with its recorded viability, T/C value.
System: MCF7 multi-cell spheroids with HUVEC/MSC, viability
Assay: Anticancer human tumor MCF7 cell line growth inhibition [IpAb];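 also: spheroids exposed to agents for seven days before readout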
Details: second compound 0.1 µM; first compound 0.00316 µM; active compounds read low

>>> assay_value("COc1c(OCCCN2CCOCC2)ccc2c3n(c(=NC(=O)c4cnc(N)nc4)nc12)CCN3 + CCN1CCN(Cc2ccc(Nc3ncc(F)c(-c4cc(F)c5nc(C)n(C(C)C)c5c4)n3)nc2)CC1")
"99.2%"
>>> assay_value("Cn1ncnc1[C@H]1c2n[nH]c(=O)c3cc(F)cc(c23)N[C@@H]1c1ccc(F)cc1 + CC(C)NCC(C(=O)N1CCN(c2ncnc3c2C(C)CC3O)CC1)c1ccc(Cl)cc1")
"89.7%"
>>> assay_value("CC(C)n1nc(-c2ccc3oc(N)nc3c2)c2c(N)ncnc21 + CCN1CCN(Cc2ccc(Nc3ncc(F)c(-c4cc(F)c5nc(C)n(C(C)C)c5c4)n3)nc2)CC1")
"69.2%"

Query block: Field request: viability, T/C | item: COc1c(OCCCN2CCOCC2)ccc2c3n(c(=NC(=O)c4cnc(N)nc4)nc12)CCN3 + CC(C)NCC(C(=O)N1CCN(c2ncnc3c2C(C)CC3O)CC1)c1ccc(Cl)cc1
Result block: 86%

Query block: Would you mind telling me what viability, T/C value was observed for CC(C)n1nc(-c2ccc3oc(N)nc3c2)c2c(N)ncnc21 + CC(C)NCC(C(=O)N1CCN(c2ncnc3c2C(C)CC3O)CC1)c1ccc(Cl)cc1 ?
Result block: 77.4%

Query block: # input compound: Cn1ncnc1[C@H]1c2n[nH]c(=O)c3cc(F)cc(c23)N[C@@H]1c1ccc(F)cc1 + CCN1CCN(Cc2ccc(Nc3ncc(F)c(-c4cc(F)c5nc(C)n(C(C)C)c5c4)n3)nc2)CC1 ; wanted: its viability, T/C
Result block: 107%

----------
Tested on: MCF7 multi-cell spheroids with HUVEC/MSC, viability
Experiment: Anticancer human tumor MCF7 cell line growth inhibition [IpAb]; active = viability on the fitted dose curve at most 10% of control; inactive = the rest;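 also: spheroids exposed to agents for seven days before readout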
Conditions: second compound 10 µM; first compound 3.16 µM
Hi there, use one of these labels in your reply, thanks! active, inactive

Please review the following examples before continuing.
>>> class_name("CC1(C)CCC(CN2CCN(c3ccc(C(=O)NS(=O)(=O)c4ccc(NCC5CCOCC5)c([N+](=O)[O-])c4)c(Oc4cnc5[nH]ccc5c4)c3)CC2)=C(c2ccc(Cl)cc2)C1 + CC(C)NCC(C(=O)N1CCN(c2ncnc3c2C(C)CC3O)CC1)c1ccc(Cl)cc1")
"inactive"
>>> class_name("C=CCn1c(=O)c2cnc(Nc3ccc(N4CCN(C)CC4)cc3)nc2n1-c1cccc(C(C)(C)O)n1 + CC(C)NCC(C(=O)N1CCN(c2ncnc3c2C(C)CC3O)CC1)c1ccc(Cl)cc1")
"active"
>>> class_name("C=CC(=O)N1CCN(c2nc(=O)n(-c3c(C)ccnc3C(C)C)c3nc(-c4c(O)cccc4F)c(F)cc23)C(C)C1 (configuration not stated) + CC(C)NCC(C(=O)N1CCN(c2ncnc3c2C(C)CC3O)CC1)c1ccc(Cl)cc1")
"inactive"

Query block: What outcome does the record of this test show for Cn1nccc1Nc1nccc(-c2ccn(C(CO)c3ccc(Cl)c(F)c3)c(=O)c2)n1 (configuration not stated) + CC(C)NCC(C(=O)N1CCN(c2ncnc3c2C(C)CC3O)CC1)c1ccc(Cl)cc1 ?
Result block: inactive

Query block: Status in this test for Cn1ncc(Cl)c1-c1cc(C(=O)NC(CN)Cc2cccc(F)c2)sc1Cl (configuration not stated) + CC(C)NCC(C(=O)N1CCN(c2ncnc3c2C(C)CC3O)CC1)c1ccc(Cl)cc1 ?
Result block: active

Query block: Give the logged outcome of this assay for the following molecule: CCCS(=O)(=O)Nc1ccc(F)c(C(=O)c2c[nH]c3ncc(-c4ccc(Cl)cc4)cc23)c1F + CC(C)NCC(C(=O)N1CCN(c2ncnc3c2C(C)CC3O)CC1)c1ccc(Cl)cc1
Result block: inactive

Query block: Tell me the assay call for Cc1nc(NC(=O)N2CCCC2C(N)=O)sc1-c1ccnc(C(C)(C)C(F)(F)F)c1 (configuration not stated) + CC(C)NCC(C(=O)N1CCN(c2ncnc3c2C(C)CC3O)CC1)c1ccc(Cl)cc1 please.
Result block: inactive
